# Tested on: P12-Ichikawa
# procedureText: cell viability relative to DMSO control; higher = less cytotoxic
# conditionSet: HPLM + 10% dialyzed FBS; 48 h; 0.00234 µM
valueKind: cell viability (%)
Give just the numeric value; % need not be written.

Examples with their reported cell viability follow.
{"compound": "CCc1ccc(OCc2ccccc2C(=O)Nc2ccc3nc(C)cc(N)c3c2)cc1", "cell viability, %": 107}
{"compound": "CCC(C)CCCCC(=O)N[C@@H](CCN)C(=O)NC(C(=O)N[C@H](CCN)C(=O)N[C@@H]1CCNC(=O)C([C@@H](C)O)NC(=O)[C@@H](CCN)NC(=O)[C@@H](CCN)NC(=O)[C@@H](CC(C)C)NC(=O)[C@H](Cc2ccccc2)NC(=O)[C@H](CCN)NC1=O)[C@@H](C)O (some centres undefined)", "cell viability, %": 118}
{"compound": "C[C@H](NC(=O)Cc1cc(F)cc(F)c1)C(=O)N[C@H](C(=O)OC(C)(C)C)c1ccccc1", "cell viability, %": 90.9}

With those in mind, consider the next compound.
Would you kindly share the measured cell viability for `C=C(c1ccc(C(=O)O)cc1)c1cc2c(cc1C)C(C)(C)CCC2(C)C` ?
119

----------
# Test system: SEM cells
# procedureText: cell viability relative to DMSO control; higher = less cytotoxic
# conditionSet: RPMI 5 mM glucose + 10% FBS; 48 h; 1.71 µM
valueKind: cell viability (%)
Reply numerically in %, unit not repeated.

{"molecule": "Clc2cccc(Cl)c2\\N=C1/NCCN1", "cell viability, %": 112}
{"molecule": "c1cc(-c2cnn3cc(-c4ccc(OCCN5CCCCC5)cc4)cnc23)ccn1", "cell viability, %": 103}
{"molecule": "CC(C)(N)c1ccc(-c2nc3ccccc3nc2-c2ccccc2)cc1", "cell viability, %": 5.02}
{"molecule": "C/C1=C2/[N]3[Co+]456([OH])<-[N]7=C1[C@@H](CCC(N)=O)C(C)(C)/C7=C/C1=[N]->4C(=C(/C)C4=[N]->5[C@@](C)([C@H]3[C@H](CC(N)=O)[C@@]2(C)CCC(=O)NC[C@@H](C)OP(=O)([O-])O[C@H]2[C@@H](O)[C@@H](n3c[n]->6c5cc(C)c(C)cc53)O[C@@H]2CO)[C@@](C)(CC(N)=O)[C@@H]4CCC(N)=O)/[C@@](C)(CC(N)=O)[C@@H]1CCC(N)=O", "cell viability, %": 97.3}

What measured cell viability goes with `OC1=CC=C(C=C1)C/2=C/C3=C(OC2)C=C(O)C=C3` ?
93.1

# query: cell viability of entry CC(C)C1CCC(C(=O)N[C@H](Cc2ccccc2)C(=O)O)CC1 (some centres not stated)
85.6

Consider the molecule `CNC[C@H](O)[C@@H](O)[C@H](O)[C@H](O)CO` and give its measured cell viability.
61.3

May I ask what cell viability has been recorded for `Nc1nc(F)nc2c1ncn2[C@@H]1O[C@H](COP(=O)(O)O)[C@@H](O)[C@@H]1O` ?
73.1

cell viability lookup needed for `CCN(CC)CCNC(=O)c1c(C)[nH]c(/C=C2\C(=O)Nc3ccc(F)cc32)c1C` , thanks.
6.37

What value of measured cell viability is listed for CCNC(=O)CCC/C=C\C[C@@H]1[C@@H](/C=C/C(O)CCc2ccccc2)[C@@H](O)C[C@@H]1O (some centres not stated) ?
118

Could you tell me which cell viability is on file for `CN1CCc2c(c3ccccc3n2Cc2ccc(C(=O)NO)cc2)C1` ?
97.3

Look at this molecule and give its reported cell viability. `Cc1cc(Nc2ncc3c(n2)N(C)C(=O)N(c2cc(NC(=O)c4cccc(C(F)(F)F)c4)ccc2C)C3)n(C)n1`
11.9

----------
cell viability listing for selected molecules.
# Test system: NOMO1
# procedureText: cell viability relative to DMSO control; higher = less cytotoxic
# conditionSet: RPMI 5 mM glucose + 10% FBS; 48 h; 0.00234 µM
Reply with just the number (in %).

Reference set, count: 5
{"molecule": "C[C@]12CCC3c4ccc(O)cc4CCC3C1CCC2=O (stereo not given in full)", "cell viability (%)": 91.7}
{"molecule": "NC1=NC(=O)N2CC12 (stereo not given)", "cell viability (%)": 94.5}
{"molecule": "CN(C)c1nc(Cc2ccc(NC(=O)c3ccc(C(F)(F)F)cc3)cc2)nc(N(C)C)c1CC(=O)O", "cell viability (%)": 88.6}
{"molecule": "Nc1n[nH]c2nnc(-c3c(-c4ccccc4)nn4ccccc34)cc12", "cell viability (%)": 114}
{"molecule": "CN1C(=O)/C(=C(NC2=CC=C(I)C=C2F)\\C3=C1\\N=C/N(C[C@@H](O)CO)C3=O)F", "cell viability (%)": 77.6}

Shifting focus to the molecule that follows.
Requested read-out: cell viability. Entry: `CC1(C)CC\C2=C(/O1)C3=C(C=CC=C3)C(=O)C2=O`
104

----------
Listed next: entries and their corresponding cell viability.
# Tested on: SEM cells
# procedureText: cell viability relative to DMSO control; higher = less cytotoxic
# conditionSet: HPLM + 10% dialyzed FBS; 48 h; 0.0211 µM
Reply numerically in %, unit not repeated.

A selection of reference data follows.
{"smilesData": "COc1cc(NCc2ccc3nc(N)nc(N)c3c2C)cc(OC)c1OC", "unitInfo": "%", "valueMeasured": 100}
{"smilesData": "N#C/C(=C(/N)Sc1ccc(N)cc1)c1ccccc1C(F)(F)F", "unitInfo": "%", "valueMeasured": 129}

Pending molecule:
Fill in the blank: the reported cell viability of `O=C(CN1C(=O)C2(CCCC2)NC[C@H]1c1cc(F)cc(F)c1)Nc1ccc2c(c1)C[C@@]1(C2)C(=O)Nc2ncccc21` is ____.
139

----------
A collection of compounds and their measured cell viability
# Tested on: NOMO1
# procedureText: cell viability relative to DMSO control; higher = less cytotoxic
# conditionSet: RPMI 5 mM glucose + 10% FBS; 48 h; 0.00234 µM
Write down the numeric answer in % and omit the unit.

Worked cases, cell viability given:
{"smilesData": "Oc1ccc(OCc2ccccc2)cc1", "cell viability / %": 113}
{"smilesData": "CC(=O)OC[C@@H]1O[C@H]([C@H](OC(C)=O)[C@@H]1OC(C)=O)N2\\C=C/C(=O)NC2=O", "cell viability / %": 117}
{"smilesData": "CC1(C)SCCN([S+](=O)([O-])c2ccc(OCC#CCO)cc2)[C@H]1C(=O)NO", "cell viability / %": 88.3}
{"smilesData": "NC(=O)c1cccc(-c2cc(Nc3ccc(OC(F)(F)F)cc3)ncn2)c1", "cell viability / %": 91}

I am curious: what cell viability value has been reported for `C[C@]12CC[C@H]3[C@@H](CC(=C)\C4=C\C(=O)\C=C/[C@]34C)[C@@H]1CCC2=O` ?
89.3

----------
# Test system: SEM cells
# procedureText: cell viability relative to DMSO control; higher = less cytotoxic
# conditionSet: RPMI 5 mM glucose + 10% dialyzed FBS; 48 h; 0.00702 µM
valueKind: cell viability (%)
Your answer should be a plain number; it is taken to be in %.

Reference set (4 entries):
{"smilesData": "C[C@]12CC[C@H]3[C@@H](CC(=C)\\C4=C\\C(=O)\\C=C/[C@]34C)[C@@H]1CCC2=O", "unitInfo": "%", "valueMeasured": 96.4}
{"smilesData": "C[C@@H]1[C@H]\\2[C@H](O)[C@H]3[C@H](N(C)C)\\C(=C(C(N)=O)/C(=O)[C@@]3(O)\\C(=C2C(=O)C4=C(O)C=CC=C14)O)O", "unitInfo": "%", "valueMeasured": 123}
{"smilesData": "Cc1ccc(Nc2cc(-c3cccc(N4C(=O)c5ccccc5C4=O)c3)ncn2)cc1N[S+](C)(=O)[O-]", "unitInfo": "%", "valueMeasured": 119}
{"smilesData": "C[S+](=O)([O-])Oc1ccc2c(NC(N)=O)c(C(=O)c3ccc(Cl)cc3Cl)oc2c1", "unitInfo": "%", "valueMeasured": 102}

Note: attention shifts to another entry.
Which value of cell viability has been reported for `Nc1ccc(C(=O)Nc2cccc(-c3nc(N4CCOCC4)c4oc5ncccc5c4n3)c2)cn1` in the records?
116

----------
# System: P12-Ichikawa
# procedureText: cell viability relative to DMSO control; higher = less cytotoxic
# conditionSet: HPLM + 10% dialyzed FBS; 48 h; 0.569 µM
Reported cell viability values for the following molecules.
The answer is to be given in %; state only the numeric part.

Example cases with answers are listed next.
{"molecule": "CC(C)(N)c1ccc(-c2nc3ccccc3nc2-c2ccccc2)cc1", "unitInfo": "%", "cell viability": 7.18}
{"molecule": "Oc1ccc(OCc2ccccc2)cc1", "unitInfo": "%", "cell viability": 115}
{"molecule": "C=C(c1ccc(C(=O)O)cc1)c1cc2c(cc1C)C(C)(C)CCC2(C)C", "unitInfo": "%", "cell viability": 125}
{"molecule": "CC1(C)SCCN([S+](=O)([O-])c2ccc(OCC#CCO)cc2)[C@H]1C(=O)NO", "unitInfo": "%", "cell viability": 98.5}

Any idea what its cell viability is? The molecule is `CN1C(=O)/C(=C(NC2=CC=C(I)C=C2F)\C3=C1\N=C/N(C[C@@H](O)CO)C3=O)F`
75.4
